# Tested Target: MAL^TIR (Homo sapiens, UniProt P58753)
# Construct: MAL (residues 79–221); 6xHis; made in house; host or cells: E. coli BL21 (DE3)
# Sequence (P58753 79-221): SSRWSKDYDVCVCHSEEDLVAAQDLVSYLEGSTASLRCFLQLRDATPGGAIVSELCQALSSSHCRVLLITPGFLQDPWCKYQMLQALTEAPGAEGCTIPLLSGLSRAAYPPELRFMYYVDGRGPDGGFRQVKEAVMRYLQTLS
# Test Description: T‐Surf phage library (P8 and P3) selection against MAL^TIR, four rounds, NGS read counts
# Assay type: binding
# Test Conditions: P3 library, 4R selection against MAL, rank before grouping
P3_MAL Rank (before) by entry:
Respond with the number and no other words.

Solved cases (6 shown):
ESILNQRRPSSQSIAN ... 2071
PNLSNKVMNYLMRTQT ... 2753
RLQEWRETLCQGHSRV ... 2550
YAFTGHLHGSLLQRRV ... 1376
ESILDQLRRRSQSIAN ... 2042
LQNQWKLALTAAANLSGW ... 2147

q: For the sequence shown here, MERVKAFHQRLKTALGH , give the reported P3_MAL Rank (before).
a: 2929

q: I am curious: what P3_MAL Rank (before) value has been reported for RGFLSHLRHHLQAKD ?
a: 2376

q: # P3_MAL Rank (before) lookup, item KEVEGWRDALTKAPI
a: 3576

q: Quick one: P3_MAL Rank (before) of RLRKWKEALHQFHSWG ?
a: 2547

q: Which value of P3_MAL Rank (before) has been reported for RGFLEPLRHHLQAKEQ in the records?
a: 2355

q: Recorded P3_MAL Rank (before) for RNFAGLLYDRLTKWA , please?
a: 2594

q: Please give the measured P3_MAL Rank (before) for this sequence: VEQTQVRKPSGAVENA
a: 1687

q: Using the record for HLLKEFGKKLITAFKN , report its P3_MAL Rank (before).
a: 2779

q: // lookup P3_MAL Rank (before) for RGFLSHLRHPVHPKDH
a: 2367

---

# Tested Target: MAL^TIR (Homo sapiens)
# Construct: MAL (residues 79–221); 6xHis; made in house; host or cells: E. coli BL21 (DE3)
# Test Description: T‐Surf phage library (P8 and P3) selection against MAL^TIR, four rounds, NGS read counts
# Format: binding
# Test Conditions: P8 library, selection against MAL, rank before grouping
Readout Label: P8_MAL Rank (before)
Keep the answer to the number alone.

WFFERLVRPILRGTQG ... 1113
AFFLAQLKSVLGKPTM ... 1578
WFYERLGSLMLRDTNV ... 1247

q: What value of P8_MAL Rank (before) has been recorded for this entry: LCFRESLKQLLRSNGR
a: 2162

q: What value of measured P8_MAL Rank (before) is listed for AFLWTQLKSLLRNTTM ?
a: 1765

q: Any idea what its P8_MAL Rank (before) is? The sequence is TFLGPQYNALVQAGTH
a: 2554

q: Could you tell me which P8_MAL Rank (before) is on file for LFFWDSLKQLLRSAGR ?
a: 2069

q: If you can, please state the reported P8_MAL Rank (before) value of RFMMKFRTELDRGNGG .
a: 2304

---

# Tested Target: MyD88^TIR (Homo sapiens, UniProt Q99836)
# Construct: MyD88 (residues 148–296); 6xHis; made in house; host or cells: E. coli BL21 (DE3)
# Sequence (Q99836 148-296): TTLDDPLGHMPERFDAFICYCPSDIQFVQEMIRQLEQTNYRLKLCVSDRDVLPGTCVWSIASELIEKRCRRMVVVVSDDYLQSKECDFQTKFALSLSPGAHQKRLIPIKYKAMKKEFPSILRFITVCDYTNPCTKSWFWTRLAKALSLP
# Test Description: T‐Surf phage library (P8 and P3) selection against MyD88^TIR, four rounds, NGS read counts
# Type: binding
# Test Conditions: P3 library, 4R selection against MyD88, rank after grouping
Readout Label: P3_MyD88 Rank (after)
Answer with a bare number; do not write a unit.

Recorded results for 5 sequences are shown here.
HLLREFDKKLITAFQD ... 594
GSFREILLRLLDLSKK ... 671
EWIREQRRSALKERLP ... 639
GRYDELFMTETDERKC ... 603
YTSLTNRGFLIFRDND ... 596

q: So what's the measured P3_MyD88 Rank (after) for this one? YAFTGQLNQYLVQRGV
a: 623

q: Could you tell me which P3_MyD88 Rank (after) is on file for KEPENYRFALHERDFP ?
a: 662

q: Suppose we examine the sequence SENYATRPWAPDELVL ; what P3_MyD88 Rank (after) value has been reported?
a: 673

q: // query P3_MyD88 Rank (after) value for entry NQWRNALTEAAHLSGW
a: 663

q: What does the record list as P3_MyD88 Rank (after) for GFREGLWRLLELSKK ?
a: 669

q: What does the record list as P3_MyD88 Rank (after) for NERGHVWSSKANSLVG ?
a: 615

q: Sample QYSGTPLAHTSKFPDE — what was its P3_MyD88 Rank (after)?
a: 605

q: Any idea what its P3_MyD88 Rank (after) is? The sequence is YAFTGHLHRYLVLRGA
a: 630

q: If you can, please state the reported P3_MyD88 Rank (after) value of SLRRNLVSNLIEEFIR .
a: 580

q: Entry YTALTYSGFHTFRGND : reported P3_MyD88 Rank (after) = ?
a: 645

q: Which P3_MyD88 Rank (after) value belongs to NHDLDLPRGKAIKPEILG ?
a: 606

q: Find the recorded P3_MyD88 Rank (after) belonging to NQWRNALTAAANLSLS and report it.
a: 675

q: # get_value(readout='P3_MyD88 Rank (after)', item= YTALANSGFHTFHDND )
a: 613

q: Name the recorded P3_MyD88 Rank (after) for RSSAFQQQLVMALKAQ .
a: 643

q: Which P3_MyD88 Rank (after) value belongs to EWIWDKLIYALSRNPH ?
a: 586

q: For the sequence shown here, TSHLHHAPRPNEIETL , give the reported P3_MyD88 Rank (after).
a: 653

Values compiled from paper PMC11714206.
